- Tested on: LPS-induced stimulation of PGE2 production by primary human monocytes
- assay.summary: LPS induced monocyte activation (PGE2 ELISA)
- Format: cell-based
- particulars: primary human monocytes, N=3; listed as Dex from Dex-TEG-Dex; read-out: IC50, inhibition of LPS-induced PGE2 production
property.name: pIC50
Please note pIC50 is a logarithmic value: minus log10 of concentration in mol/L. Answer with that number alone.

Data request: Find the recorded pIC50 belonging to C[C@@H]1C[C@H]2[C@@H]3CCC4=CC(=O)C=C[C@]4(C)[C@@]3(F)[C@@H](O)C[C@]2(C)[C@@]1(O)C(=O)CO and report it.
Data returned: 9.03

====

- assay.summary: Maximum soluble concentration in culture medium (HPLC)
- Assay type: physicochemical
- particulars: plasma or biological fluid, kinetic from ethanol stock, fibroblast growth medium, 1% ethanol, sterile filtered
property.name: solubility (µg/mL)
Give the quantity in µg/mL, number only.

Data request: Find the recorded solubility belonging to C[C@@H]1C[C@H]2[C@@H]3CCC4=CC(=O)C=C[C@]4(C)[C@@]3(F)[C@@H](O)C[C@]2(C)[C@@]1(O)C(=O)COC(=O)OCCOCCOCCOC(=O)OCC(=O)[C@@]1(O)[C@H](C)C[C@H]2[C@@H]3CCC4=CC(=O)C=C[C@]4(C)[C@@]3(F)[C@@H](O)C[C@@]21C and report it.
Data returned: 6.7

From: paper PMC8129133
